Biological target: T1, PUF4 RNA-binding domain (Saccharomyces cerevisiae, UniProt P25339 537-888)
T1 sequence: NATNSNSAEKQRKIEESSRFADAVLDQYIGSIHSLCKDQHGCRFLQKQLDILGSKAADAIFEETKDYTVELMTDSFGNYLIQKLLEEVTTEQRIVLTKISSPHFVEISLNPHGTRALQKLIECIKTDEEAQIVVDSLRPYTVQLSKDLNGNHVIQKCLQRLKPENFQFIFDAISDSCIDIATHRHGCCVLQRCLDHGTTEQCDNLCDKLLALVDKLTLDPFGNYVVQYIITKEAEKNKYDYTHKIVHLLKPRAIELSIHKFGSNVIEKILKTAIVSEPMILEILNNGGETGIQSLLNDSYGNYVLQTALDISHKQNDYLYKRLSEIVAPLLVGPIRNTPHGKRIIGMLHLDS
Experiment: Mg; RNA-MaP; 20 mM Na-HEPES pH 7.4, 30 mM KOAc, 0.75 mM MgCl2, 0.1% Tween-20, 5% glycerol, 0.1 mg/mL BSA, 2 mM DTT; 25 C; 0.0125-409.6 nM protein
Details: tags: N-His6-TEV cleaved; C-SNAP kept, Cy3B-labelled; label: tethered on chip by stalled RNA polymerase
OUTCOME MEASURE: Kd

Specify reported Kd for the binder shown: UCUCUUUGUCCUCUAUUAUUAUCUCUU (ssRNA) [Ie_S1_P5E.1_K5.1_C5.1_H5.1_[+3CCTCT]_A5.1_F5.1_T5.1]
397 nM

Specify reported Kd for the binder shown: ACAAACUGUAUUCCUAUUAACAAAC (ssRNA) [Ie_S3_P4E.1_K4.1_C4.1_H4.1_[+4TTCC]_A4.1_F4.1_T4.1]
9.85 nM

Specify reported Kd for the binder shown: Id_iii_S2_P3E.9_K3.5_C3.3_[T-1C]_H3.1_A3.2_F3.2_T3.2 (ssRNA) RNA: UUUGAUUAAUAUGAUAUCGUUCUUUCUUCCUGUAAAAAUAUUCUUUCUCGAUAUCAUAUUAAUCUUU
11.9 nM

Specify reported Kd for the binder shown: UCUCUUUGUAUAUUCUAUCUCUU (ssRNA) [Ie_S1_P4E.1_K4.1_C4.1_H4.1_A4.1_F4.1_[+8CT]_T4.1]
5.4 nM

Specify reported Kd for the binder shown: Id_ii_S2_P3E.2_K3.1_C3.2_[C-2T]_H3.1_A3.1_F3.1_T3.2_[T9C]_[A10C] (ssRNA) RNA: UUUGAUUAAUAUGAUAUCGUUCUUUCUUUUGUAUAUACCUUCUUUCUCGAUAUCAUAUUAAUCUUU
2.82 nM

Specify reported Kd for the binder shown: Id_ii_S2_P3E.2_K3.1_C3.2_[C-2A]_[T-1C]_H3.1_A3.1_F3.1_T3.2_[T9A] (ssRNA) RNA: UUUGAUUAAUAUGAUAUCGUUCUUUCUACUGUAUAUAAAUUCUUUCUCGAUAUCAUAUUAAUCUUU
3.66 nM

Specify reported Kd for the binder shown: Ib_S4_P4E.1_K4.1_C4.1_H4.1_A4.1_[A6G]_F4.1_[A9C]_T4.1 (ssRNA) RNA: UUUGACAACUGAUCGUUCUUUCUUGUAUGUUCUUCUUUCUCGAUCAGUUGUCUUU
15.5 nM

Specify reported Kd for the binder shown: Ie_S2_P5E.1_K5.1_C5.1_H5.1_[+2CTCTC]_A5.1_F5.1_T5.1 (ssRNA) RNA: UUUGAUUAAUAUGAUAUCGUUCUUUCUUGCUCUCUAUUAUUAUUCUUUCUCGAUAUCAUAUUAAUCUUU
724 nM

Specify reported Kd for the binder shown: Id_ii_S2_P3E.2_K3.1_C3.2_[C-2T]_[T-1G]_H3.1_A3.1_F3.1_T3.2_[A10T] (ssRNA) RNA: UUUGAUUAAUAUGAUAUCGUUCUUUCUUGUGUAUAUAUUUUCUUUCUCGAUAUCAUAUUAAUCUUU
1.33 nM

Specify reported Kd for the binder shown: Id_ii_S2_P5E.2_K5.1_C5.2_[T-1C]_H5.1_A5.1_F5.1_T5.2_[T11A] (ssRNA) RNA: UUUGAUUAAUAUGAUAUCGUUCUUUCUCCUGUAUUAUUAAAUUCUUUCUCGAUAUCAUAUUAAUCUUU
3.1 nM

Specify reported Kd for the binder shown: Ic_S2_P4E.1_K4.1_C4.1_H4.1_A4.1_[A6T]_[T7C]_F4.1_[T8A]_T4.1 (ssRNA) RNA: UUUGAUUAAUAUGAUAUCGUUCUUUCUUGUAUUCAAUUCUUUCUCGAUAUCAUAUUAAUCUUU
201 nM

Specify reported Kd for the binder shown: Ib_S4_P5E.1_K5.1_C5.1_H5.1_[G2T]_A5.1_[A7C]_F5.1_T5.1 (ssRNA) RNA: UUUGACAACUGAUCGUUCUUUCUUUUAUUCUUAUUCUUUCUCGAUCAGUUGUCUUU
> 2300 nM

Specify reported Kd for the binder shown: UCUCUUUCUAUAUAUUAAGUCUCUU (ssRNA) [Id_ii_S1_P4E.3_K4.2_C4.2_[C-2T]_[T-1C]_H4.2_A4.1_F4.1_T4.2_[G10A]_[T11G]]
130 nM

Specify reported Kd for the binder shown: Ib_S2_P3E.1_K3.1_C3.1_H3.1_[G2C]_A3.1_[A6C]_F3.1_T3.1 (ssRNA) RNA: UUUGAUUAAUAUGAUAUCGUUCUUUCUUCUAUCUAUUCUUUCUCGAUAUCAUAUUAAUCUUU
> 2300 nM

Specify reported Kd for the binder shown: UCUCUUAGACACUUAUUAAUUCUCUU (ssRNA) [Id_ii_S1_P5E.4_K5.3_C5.2_[C-2A]_[T-1G]_H5.3_A5.1_F5.1_T5.2_[T11A]_[A12T]]
> 2300 nM

Specify reported Kd for the binder shown: Id_ii_S2_P5E.3_K5.2_C5.2_[C-2G]_H5.2_A5.1_F5.1_T5.2_[T11G]_[A12T] (ssRNA) RNA: UUUGAUUAAUAUGAUAUCGUUCUUUCUGUUAUAUUAUUAGUUUCUUUCUCGAUAUCAUAUUAAUCUUU
16.7 nM

Specify reported Kd for the binder shown: UCUCUUUGUACCAGCGUCUCUU (ssRNA) [Ic_S1_P5E.1_K5.1_C5.1_H5.1_A5.1_[T5C]_[T6C]_F5.1_[T8G]_[T9C]_[A10G]_T5.1]
1180 nM

Specify reported Kd for the binder shown: Ie_S2_P4E.1_K4.1_C4.1_H4.1_A4.1_F4.1_[+8TTCCT]_T4.1 (ssRNA) RNA: UUUGAUUAAUAUGAUAUCGUUCUUUCUUGUAUAUUUUCCUAUUCUUUCUCGAUAUCAUAUUAAUCUUU
3.81 nM

Specify reported Kd for the binder shown: Ic_S4_P4E.1_K4.1_C4.1_H4.1_A4.1_[A6C]_[T7C]_F4.1_[T8G]_[A9T]_T4.1 (ssRNA) RNA: UUUGACAACUGAUCGUUCUUUCUUGUAUCCGUUUCUUUCUCGAUCAGUUGUCUUU
172 nM

Specify reported Kd for the binder shown: Ie_S2_P5E.1_K5.1_C5.1_H5.1_[+1CC]_A5.1_F5.1_T5.1 (ssRNA) RNA: UUUGAUUAAUAUGAUAUCGUUCUUUCUUCCGUAUUAUUAUUCUUUCUCGAUAUCAUAUUAAUCUUU
565 nM

Specify reported Kd for the binder shown: UCUCUUUAUAUUAUUGUCUCUU (ssRNA) [Ib_S1_P5E.1_K5.1_C5.1_H5.1_[G2A]_A5.1_F5.1_[A10G]_T5.1]
242 nM

Specify reported Kd for the binder shown: Id_ii_S4_P3E.4_K3.3_C3.2_[C-2T]_[T-1A]_H3.3_A3.1_F3.1_T3.2_[A10T] (ssRNA) RNA: UUUGACAACUGAUCGUUCUUUCUUAACACUAUAUUUUCUUUCUCGAUCAGUUGUCUUU
1310 nM

Specify reported Kd for the binder shown: Ic_S2_P4E.1_K4.1_C4.1_H4.1_A4.1_[T5C]_[T7C]_F4.1_[T8A]_T4.1 (ssRNA) RNA: UUUGAUUAAUAUGAUAUCGUUCUUUCUUGUACACAAUUCUUUCUCGAUAUCAUAUUAAUCUUU
13.8 nM
